Target: HIRA-WB;UBN1-NM;ASF1a-C (human;human;human?, UniProt P54198;Q9NPG3;Q9Y294 1-473;1-584;1-156, ||)
Experiment: fluorescence polarization; no histones; 20 mM HEPES pH 7.5, 150 mM NaCl, 0.5 mM TCEP, 0.001% Tween-20, 1 mg/ml BSA; 10 nM probe; temperature not stated
Details: protein: recombinant;recombinant;recombinant; tags: N-terminal His;;GST cleaved with precision protease; copies: 1;1;1; label: 5'-FAM on sense strand; blunt
Attribute measured: pKd
Numbers only, as −log10 of the molar value.

Prompt line: Given 10x ATGC 40-mer dsDNA (dsDNA) DNA 1: ATGCATGCATGCATGCATGCATGCATGCATGCATGCATGC DNA 2: GCATGCATGCATGCATGCATGCATGCATGCATGCATGCAT , respond with its pKd.
Response line: 6.01

Provenance of the data: paper PMC11388340
